Test system: HCT-116
Test: CTG assay, effect on proliferation ability of tumor cells
Type: cell-based, human
Settings: HCT-116, 168 h; human colon cancer cells, 7 days incubation, CTG; read-out: IC50 (nM) HCT-116
Description: Test method for the effect of camptothecin on the proliferation ability of tumor cells: The effect of camptothecin derivatives K1, K2, K3, K4, K5, K6, K7, K8, and K9 on the proliferation ability of tumor cells was tested using the CTG assay. Test cells (see Table 1) were digested, resuspended, and counted. […] Then, 30 µl of the reaction solution was transferred to a Viewplate-96 white microplate (transparent bottom), and data analysis was performed on an EnVision microplate reader. […]
Experimental endpoint: IC50 (nM)
Answers are plain numbers, in nM.

Consider the following illustrative entries.
CC[C@@]1(O)C(=O)OCc2c1cc1n(c2=O)Cc2c-1nc1cc(F)c(C)cc1c2-c1ccn(CCCO)n1: 3.21
CC[C@@]1(O)C(=O)OCc2c1cc1n(c2=O)Cc2c-1nc1cc(F)c(C)cc1c2-c1cn(CCCCO)nn1: 1.36
CC[C@@]1(O)C(=O)OCc2c1cc1n(c2=O)Cc2c-1nc1cc(F)c(C)cc1c2-c1cnn(CCCO)c1: 0.35

Query: Given CC[C@@]1(O)C(=O)OCc2c1cc1n(c2=O)Cc2c-1nc1cc(F)c(C)cc1c2-c1ccn(CCCCO)n1 , respond with its IC50.
Result: 3.87

====

Test system: HCT-116
Assay: CTG assay, effect on proliferation ability of tumor cells
Format: cell-based, human
Details: HCT-116, 168 h; human colon cancer cells, 7 days incubation, CTG; read-out: IC50 (nM) HCT-116
Experimental endpoint: IC50 (nM)
Answers are plain numbers, in nM.

Would you please look over these solved cases?
CC[C@@]1(O)C(=O)OCc2c1cc1n(c2=O)Cc2c-1nc1cc(F)c(C)cc1c2-c1cn(CCCO)nn1: 0.89
CC[C@@]1(O)C(=O)OCc2c1cc1n(c2=O)Cc2c-1nc1cc(F)c(C)cc1c2-c1ccn(CCO)n1: 2.24

Query: Indicate the recorded IC50 value for this molecule: CC[C@@]1(O)C(=O)OCc2c1cc1n(c2=O)Cc2c-1nc1cc(F)c(C)cc1c2-c1cnn(CCCCO)c1
Result: 0.78
